Multi-source literature compilation: pIC50 on Cyclin-dependent kinase 6 (Homo sapiens).
Please note pIC50 is a logarithmic value: minus log10 of concentration in mol/L. Answer with that number alone.

// query Give pIC50 (Cyclin-dependent kinase 6 (Homo sapiens)) of the following compound: Cc1nn(C2CCNCC2)cc1Nc1ncc(F)c(-c2cc(F)c3c(c2)N(C(C)C)CCO3)n1
// result 7.35

// query Give pIC50 (Cyclin-dependent kinase 6 (Homo sapiens)) of the following compound: CC(C)N1CCOc2c(F)cc(-c3nc(Nc4ccc(C(=O)N5CCC(O)CC5)cn4)ncc3F)cc21
// result 7.74

// query Give pIC50 (Cyclin-dependent kinase 6 (Homo sapiens)) of the following compound: CC(C)N1CCOc2c(F)cc(-c3nc(Nc4ccc(S(N)(=O)=O)cc4)ncc3F)cc21
// result 7.89

// query Give pIC50 (Cyclin-dependent kinase 6 (Homo sapiens)) of the following compound: CN(C)C(=O)c1sc2cnc(Nc3ccc(N4CCNCC4)cn3)cc2c1C1CC2CC2C1 (stereo not drawn)
// result 8.19

// query Give pIC50 (Cyclin-dependent kinase 6 (Homo sapiens)) of the following compound: CC(C)c1c2c(nn1C)C(C)(C)c1cnc(Nc3ccc(N4CCNCC4)cn3)nc1-2
// result 6.65

// query Give pIC50 (Cyclin-dependent kinase 6 (Homo sapiens)) of the following compound: c1cc(Nc2ncc3c(n2)-c2c(nc(C4CC4)n2C2CCCC2)C3)ncc1N1CCNCC1
// result 6.74

// query Give pIC50 (Cyclin-dependent kinase 6 (Homo sapiens)) of the following compound: CC(C)c1c2c(nn1C)CC(C)(C)c1cnc(Nc3ccc(N4CCNCC4)cn3)nc1-2
// result 6.38

// query Give pIC50 (Cyclin-dependent kinase 6 (Homo sapiens)) of the following compound: CCN1CCC(COc2ccc(Nc3cc(-c4cc(F)c5c(c4)N(C(C)C)CCO5)c(F)cn3)nc2)CC1
// result 7.92
